assay overview: Selectivity index, ratio of IC50 for human WI-38 cells to IC50 for human MCF7 cells
Type: toxicity
condition set: WI-38 cells versus MCF7 cells, read-out: Ratio IC50
property measured: selectivity ratio
Give the figure only, with no unit attached.

Data request: Returns the measured selectivity ratio for the input compound. Input: C[C@@]12CC[C@@H]3[C@@](CC[C@H]4[C@@]3(C)CCC[C@@]4(C)C(=O)OCC[N+](C)(C)CCCCCCCCCCCC[N+](C)(C)CCOC(=O)[C@]3(C)CCC[C@@]4(C)[C@@H]5CC[C@@]6(C)C[C@]5(CC[C@@H]43)CC6=O)(CC1=O)C2.[Br-].[Br-]
Data returned: 5

###

assay overview: Selectivity index, ratio of IC50 for human WI-38 cells to IC50 for human PC-3 cells
Assay type: toxicity
condition set: WI-38 cells versus PC-3 cells, read-out: Ratio IC50
property measured: selectivity ratio
Lab note: record just the number, no unit beside it.

Data request: # selectivity ratio lookup, item C[C@@]12CC[C@@H]3[C@@](CC[C@H]4[C@@]3(C)CCC[C@@]4(C)C(=O)OCC[N+](C)(C)CCCCCCCCCCCC[N+](C)(C)CCOC(=O)[C@]3(C)CCC[C@@]4(C)[C@@H]5CC[C@@]6(C)C[C@]5(CC[C@@H]43)CC6=O)(CC1=O)C2.[Br-].[Br-]
Data returned: 1.9

###

assay overview: Selectivity index, ratio of IC50 for human WI-38 cells to IC50 for human T98G cells
Format: toxicity
condition set: WI-38 cells versus T98G cells, read-out: Ratio IC50
property measured: selectivity ratio

Data request: Return reported selectivity ratio; argument: C[C@@]12CC[C@@H]3[C@@](CC[C@H]4[C@@]3(C)CCC[C@@]4(C)C(=O)OCC[N+](C)(C)CCCCCCCCCCCC[N+](C)(C)CCOC(=O)[C@]3(C)CCC[C@@]4(C)[C@@H]5CC[C@@]6(C)C[C@]5(CC[C@@H]43)CC6=O)(CC1=O)C2.[Br-].[Br-]
Data returned: 0.6

###

Give HC50 at 1 h for every item shown.
assay overview: Hemolytic activity against human erythrocytes after 1 hr by digital photoelectric colorimetric method
Assay type: ADME, cell-based, Erythrocyte
Non-standard residues stand in square brackets, D forms with d. Residues, ends and D or L forms follow the SMILES beside them. Orn = NCCC[C@H](N)C(=O)O
// note: answer is a bare numeric in µM

Data request: # query: HC50 at 1 h of entry CC(C)C[C@@H]1NC(=O)[C@H](CCCN)NC(=O)[C@H](C(C)C)NC(=O)[C@@H]2CCCN2C(=O)[C@@H](Cc2ccccc2)NC(=O)[C@H](CC(C)C)NC(=O)[C@H](CCCN)NC(=O)[C@H](C(C)C)NC(=O)[C@@H]2CCCN2C(=O)[C@@H](Cc2ccccc2)NC1=O [GRAMICIDIN S] (cyclo(L[dF]PV[Orn]L[dF]PV[Orn]))
Data returned: 9.4

Data request: Request the reported HC50 at 1 h associated with C[C@@]12CC[C@@H]3[C@@](CC[C@H]4[C@@]3(C)CCC[C@@]4(C)C(=O)OCC[N+](C)(C)CCCCCCCCCCCC[N+](C)(C)CCOC(=O)[C@]3(C)CCC[C@@]4(C)[C@@H]5CC[C@@]6(C)C[C@]5(CC[C@@H]43)CC6=O)(CC1=O)C2.[Br-].[Br-]
Data returned: 20.3

###

System: WI-38
assay overview: Cytotoxicity against human WI-38 cells assessed as reduction in cell viability by DAPI staining based assay
property measured: pIC50
// pIC50: -log10(molar conc.)

Data request: Tell me the measured pIC50 of C[C@@]12CC[C@@H]3[C@@](CC[C@H]4[C@@]3(C)CCC[C@@]4(C)C(=O)OCC[N+](C)(C)CCCCCCCCCCCC[N+](C)(C)CCOC(=O)[C@]3(C)CCC[C@@]4(C)[C@@H]5CC[C@@]6(C)C[C@]5(CC[C@@H]43)CC6=O)(CC1=O)C2.[Br-].[Br-] , please.
Data returned: 4.60
